Measured MIC of individual entries
- System: Mycobacterium tuberculosis
- method.description: Antimycobacterial activity against isoniazid, rifampicin and streptomycin-resistant Mycobacterium tuberculosis after 7 days by resazurin method
- Type: functional
- experimental.context: 168 h
property.label: MIC

{"compound": "CCCCCCCCCCCCCCCC(=O)N1C2=C3NC(=O)/C(C)=C\\C=C\\[C@H](C)[C@H](O)[C@@H](C)[C@@H](O)[C@@H](C)[C@H](OC(C)=O)[C@H](C)[C@@H](OC)/C=C/O[C@@]4(C)Oc5c(C)c(O)c(c(c5C4=O)C2=NC12CCN(CC(C)C)CC2)C3=O", "value.observed": "> 10 µg/mL"}
{"compound": "CO[C@H]1/C=C/O[C@@]2(C)Oc3c(C)c(O)c4c(c3C2=O)C2=NC3(CC[N+]([O-])(CC(C)C)CC3)NC2=C(NC(=O)/C(C)=C\\C=C\\[C@H](C)[C@H](O)[C@@H](C)[C@@H](O)[C@@H](C)[C@H](O)[C@@H]1C)C4=O (stereo not given in full)", "value.observed": "> 10 µg/mL"}
{"compound": "C=CCCCCCCCCC(=O)N1C2=C3NC(=O)/C(C)=C\\C=C\\[C@H](C)[C@H](O)[C@@H](C)[C@@H](O)[C@@H](C)[C@H](OC(C)=O)[C@H](C)[C@@H](OC)/C=C/O[C@@]4(C)Oc5c(C)c(O)c(c(c5C4=O)C2=NC12CCN(CC(C)C)CC2)C3=O", "value.observed": "6 µg/mL"}
{"compound": "CO[C@H]1/C=C/O[C@@]2(C)Oc3c(C)c(O)c4c(c3[C@H]2O)C2=NC3(CCN(CC(C)C)CC3)N(C(C)=O)C2=C(NC(=O)/C(C)=C\\C=C\\[C@H](C)[C@H](O)[C@@H](C)[C@@H](O)[C@@H](C)[C@H](OC(C)=O)[C@@H]1C)C4=O", "value.observed": "8 µg/mL"}
{"compound": "CO[C@H]1/C=C/O[C@@]2(C)Oc3c(C)c(O)c4c(c3[C@H]2O)C2=NC3(CC[N+]([O-])(CC(C)C)CC3)NC2=C(NC(=O)/C(C)=C\\C=C\\[C@H](C)[C@H](O)[C@@H](C)[C@@H](O)[C@@H](C)[C@H](OC(C)=O)[C@@H]1C)C4=O (stereo not given in full)", "value.observed": "> 10 µg/mL"}
{"compound": "CO[C@H]1/C=C/O[C@@]2(C)Oc3c(C)c(O)c4c(c3C2=O)C2=NC3(CC[N+]([O-])(CC(C)C)CC3)NC2=C(NC(=O)/C(C)=C\\C=C\\[C@H](C)[C@H](O)[C@@H](C)[C@@H](O)[C@@H](C)[C@H](OC(C)=O)[C@@H]1C)C4=O (stereo not given in full)", "value.observed": "> 10 µg/mL"}
{"compound": "CO[C@H]1/C=C/O[C@@]2(C)Oc3c(C)c(O)c4c(c3C2=O)C2=NC3(CCN(CC(C)C)CC3)N(C(C)=O)C2=C(NC(=O)/C(C)=C\\C=C\\[C@H](C)[C@H](O)[C@@H](C)[C@@H](O)[C@@H](C)[C@H](OC(C)=O)[C@@H]1C)C4=O", "value.observed": "> 10 µg/mL"}
{"compound": "CO[C@H]1/C=C/O[C@@]2(C)Oc3c(C)c(O)c4c(c3C2=O)C2=NC3(CCN(CC(C)C)CC3)NC2=C(NC(=O)/C(C)=C\\C=C\\[C@H](C)[C@H](O)[C@@H](C)[C@@H](O)[C@@H](C)[C@H](OC(C)=O)[C@@H]1C)C4=O [RIFABUTIN]", "value.observed": "> 10 µg/mL"}
{"compound": "CO[C@H]1/C=C/O[C@@]2(C)Oc3c(C)c(O)c4c(c3[C@H]2O)C2=NC3(CCN(CC(C)C)CC3)NC2=C(NC(=O)/C(C)=C\\C=C\\[C@H](C)[C@H](O)[C@@H](C)[C@@H](O)[C@@H](C)[C@H](O)[C@@H]1C)C4=O", "value.observed": "> 10 µg/mL"}
{"compound": "CO[C@H]1/C=C/O[C@@]2(C)Oc3c(C)c(O)c4c(c3C2=O)C2=NC3(CCN(CC(C)C)CC3)NC2=C(NC(=O)/C(C)=C\\C=C\\[C@H](C)[C@H](O)[C@@H](C)[C@@H](O)[C@@H](C)[C@H](O)[C@@H]1C)C4=O", "value.observed": "> 10 µg/mL"}
